- ASSAYED TARGET: human NMDA-NR2B containing receptors (Homo sapiens, UniProt Q05586+Q13224)
- Sequence (Q13224 27-1484, other chains not shown): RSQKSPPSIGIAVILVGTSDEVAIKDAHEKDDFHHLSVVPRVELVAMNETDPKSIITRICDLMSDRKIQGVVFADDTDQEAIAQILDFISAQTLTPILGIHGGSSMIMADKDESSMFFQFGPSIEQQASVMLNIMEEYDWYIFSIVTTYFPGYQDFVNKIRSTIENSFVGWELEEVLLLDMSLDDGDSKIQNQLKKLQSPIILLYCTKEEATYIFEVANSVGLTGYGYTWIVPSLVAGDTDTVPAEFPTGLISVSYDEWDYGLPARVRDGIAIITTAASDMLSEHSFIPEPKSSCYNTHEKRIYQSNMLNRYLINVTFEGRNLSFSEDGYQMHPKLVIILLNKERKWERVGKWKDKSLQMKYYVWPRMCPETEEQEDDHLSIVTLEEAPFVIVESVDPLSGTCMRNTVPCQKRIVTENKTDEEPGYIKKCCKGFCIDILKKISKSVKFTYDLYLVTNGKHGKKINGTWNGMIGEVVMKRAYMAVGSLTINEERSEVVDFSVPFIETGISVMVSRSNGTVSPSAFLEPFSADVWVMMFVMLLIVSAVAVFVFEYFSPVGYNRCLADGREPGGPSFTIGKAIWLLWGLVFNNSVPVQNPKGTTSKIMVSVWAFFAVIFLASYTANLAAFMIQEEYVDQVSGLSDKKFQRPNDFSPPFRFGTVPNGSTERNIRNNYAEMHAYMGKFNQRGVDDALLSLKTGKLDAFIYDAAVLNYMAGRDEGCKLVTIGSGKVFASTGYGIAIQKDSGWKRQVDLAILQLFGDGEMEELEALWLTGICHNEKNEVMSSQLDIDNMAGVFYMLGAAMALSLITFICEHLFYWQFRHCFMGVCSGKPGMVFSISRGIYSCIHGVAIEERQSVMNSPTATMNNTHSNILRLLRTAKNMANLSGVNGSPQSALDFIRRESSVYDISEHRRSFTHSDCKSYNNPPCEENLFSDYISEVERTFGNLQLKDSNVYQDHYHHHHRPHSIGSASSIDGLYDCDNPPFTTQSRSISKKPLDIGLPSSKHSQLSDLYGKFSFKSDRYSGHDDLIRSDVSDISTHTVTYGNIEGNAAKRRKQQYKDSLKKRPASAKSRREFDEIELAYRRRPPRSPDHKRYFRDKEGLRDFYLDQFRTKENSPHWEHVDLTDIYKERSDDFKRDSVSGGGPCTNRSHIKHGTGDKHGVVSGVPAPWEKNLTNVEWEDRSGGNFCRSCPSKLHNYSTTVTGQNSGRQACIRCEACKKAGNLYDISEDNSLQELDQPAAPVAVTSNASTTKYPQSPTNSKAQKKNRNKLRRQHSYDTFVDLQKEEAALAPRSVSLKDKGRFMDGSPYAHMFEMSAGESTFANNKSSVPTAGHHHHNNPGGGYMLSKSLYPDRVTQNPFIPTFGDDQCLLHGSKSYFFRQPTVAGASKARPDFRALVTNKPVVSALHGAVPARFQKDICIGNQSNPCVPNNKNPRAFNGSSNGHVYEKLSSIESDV
- ASSAY COMMENT: pH potency boost, Xenopus oocyte assay, human receptor cDNA
- Type: cell-based
- PARTICULARS: pH potency boost, pH 6.9 vs 7.6, human receptors
What HUMAN Boost was measured for each of the following?
Give a plain numeric answer without units written out.

Query: Given the entry CCCCN(CCc1ccc(Cl)c(Cl)c1)CC(O)COc1ccc(NS(C)(=O)=O)cc1 (centres unmarked) [Compound 93-88] , report its measured HUMAN Boost.
Response: 22.1

Query: # get_value(readout='HUMAN Boost', item= C/C=C/CN(CCc1ccc(Cl)c(Cl)c1)CC(O)COc1ccc(NS(C)(=O)=O)cc1 (centres unmarked) [Compound 93-128] )
Response: 18.0

Query: Which HUMAN Boost is reported for this compound? CS(=O)(=O)Nc1ccc(OCC(O)CN(CCc2ccc(Cl)c(Cl)c2)Cc2ccccc2)cc1 (centres unmarked) [Compound 93-30]
Response: 21.0

Query: What value of HUMAN Boost has been recorded for this entry: CS(=O)(=O)Nc1ccc(OCC(O)CN2CCN(c3ccc(F)c(F)c3)CC2)cc1 (centres unmarked) [Compound 93-108]
Response: 17.7

Query: Requested field: HUMAN Boost. Item: CS(=O)(=O)Nc1ccc(OCC2CN(CCc3cc(Cl)c(Cl)s3)C(c3c(F)c(F)c(F)c(F)c3F)O2)cc1 (centres unmarked) [Compound 93-176]
Response: 29.9

* * *

- ASSAYED TARGET: rat NMDA-NR2B containing receptors (Rattus norvegicus, UniProt P35439+Q00960)
- Sequence (Q00960 27-1482, other chains not shown): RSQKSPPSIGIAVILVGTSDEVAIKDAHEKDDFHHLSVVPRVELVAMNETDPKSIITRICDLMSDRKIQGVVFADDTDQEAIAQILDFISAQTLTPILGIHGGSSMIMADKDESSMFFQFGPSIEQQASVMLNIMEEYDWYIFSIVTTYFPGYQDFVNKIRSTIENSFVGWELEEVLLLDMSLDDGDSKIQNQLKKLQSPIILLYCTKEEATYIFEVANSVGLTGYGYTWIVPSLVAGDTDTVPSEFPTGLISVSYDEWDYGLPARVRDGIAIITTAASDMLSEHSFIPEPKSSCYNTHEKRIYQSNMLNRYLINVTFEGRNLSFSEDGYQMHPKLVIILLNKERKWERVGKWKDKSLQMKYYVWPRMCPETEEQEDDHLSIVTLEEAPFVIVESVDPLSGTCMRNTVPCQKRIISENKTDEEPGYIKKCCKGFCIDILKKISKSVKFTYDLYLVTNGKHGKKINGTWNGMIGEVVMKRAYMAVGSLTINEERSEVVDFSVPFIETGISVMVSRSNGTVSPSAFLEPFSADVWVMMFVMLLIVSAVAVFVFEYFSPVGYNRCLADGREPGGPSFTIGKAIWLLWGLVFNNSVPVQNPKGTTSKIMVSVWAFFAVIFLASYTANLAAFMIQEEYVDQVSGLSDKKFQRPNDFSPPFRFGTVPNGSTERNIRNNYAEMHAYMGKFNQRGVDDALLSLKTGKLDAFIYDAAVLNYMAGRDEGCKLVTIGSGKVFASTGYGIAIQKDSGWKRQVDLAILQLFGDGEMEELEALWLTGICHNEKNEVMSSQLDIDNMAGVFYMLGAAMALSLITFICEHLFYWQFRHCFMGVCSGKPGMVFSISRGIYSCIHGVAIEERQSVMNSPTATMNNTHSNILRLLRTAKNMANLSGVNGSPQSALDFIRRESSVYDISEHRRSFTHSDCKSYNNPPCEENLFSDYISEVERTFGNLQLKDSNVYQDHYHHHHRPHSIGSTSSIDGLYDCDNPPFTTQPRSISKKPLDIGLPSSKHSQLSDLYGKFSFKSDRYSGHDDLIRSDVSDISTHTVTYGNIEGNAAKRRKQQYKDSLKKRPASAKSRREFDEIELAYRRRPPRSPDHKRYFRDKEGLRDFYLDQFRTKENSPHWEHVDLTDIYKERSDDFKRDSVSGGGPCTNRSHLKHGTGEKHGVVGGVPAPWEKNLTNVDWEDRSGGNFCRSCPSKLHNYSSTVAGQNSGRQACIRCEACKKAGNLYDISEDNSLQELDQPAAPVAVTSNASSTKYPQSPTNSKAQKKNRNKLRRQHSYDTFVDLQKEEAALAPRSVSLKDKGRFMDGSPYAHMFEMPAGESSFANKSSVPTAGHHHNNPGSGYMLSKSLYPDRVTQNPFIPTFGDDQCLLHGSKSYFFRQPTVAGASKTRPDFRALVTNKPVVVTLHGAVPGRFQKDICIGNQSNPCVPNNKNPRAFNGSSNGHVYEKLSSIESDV
- ASSAY COMMENT: pH potency boost, Xenopus oocyte assay, rat receptor cDNA
- Type: cell-based
- PARTICULARS: pH 6.9 vs 7.6, rat receptors
MEASURED PARAMETER: RAT Boost

Query: Please look up its RAT Boost: C/C=C/CN(CCc1ccc(Cl)c(Cl)c1)CC(O)COc1ccc(NS(C)(=O)=O)cc1 (centres unmarked)
Response: 4.1

Query: Look at this compound and give its reported RAT Boost. CS(=O)(=O)Nc1ccc(OCC2CN(CCc3cc(Cl)c(Cl)s3)C(c3c(F)c(F)c(F)c(F)c3F)O2)cc1 (centres unmarked)
Response: 34.5

Query: Which RAT Boost reading was recorded for the compound CS(=O)(=O)Nc1ccc(OCC(O)CN(CCc2ccc(Cl)c(Cl)c2)Cc2ccccc2)cc1 (centres unmarked) ?
Response: 7.4

Query: What value of RAT Boost has been reported for the following compound? CS(=O)(=O)Nc1ccc(OCC(O)CN2CCN(c3ccc(F)c(F)c3)CC2)cc1 (centres unmarked)
Response: 3.4

Query: Entry under review: CCCCN(CCc1ccc(Cl)c(Cl)c1)CC(O)COc1ccc(NS(C)(=O)=O)cc1 (centres unmarked) . Reported RAT Boost?
Response: 6.3
